Species: Rattus norvegicus
Test: DrugMatrix - Regimen: Daily Repeat
Format: toxicity, organism-based, Sprague-Dawley
Set-up: regimen Daily Repeat, gender Male, age 6-8 weeks
Settings: in vivo, ip, 0 mg/kg, […], tissue Blood, route intraperitoneal, dose level Control, time 14 day, vehicle 100 % SALINE
PROPERTY NAME: ABSOLUTE BASOPHIL (cells/µL)
Hi! Could you send only the number? It should be in cells/µL, unit omitted.

Ask | Name the reported ABSOLUTE BASOPHIL value associated with the compound "CCN[C@@H]1C[C@H](N)[C@@H](O[C@H]2OC(CN)=CC[C@H]2N)[C@H](O)[C@H]1O[C@H]1OC[C@](C)(O)[C@H](NC)[C@H]1O"
Reply | 130

====

Organism: Rattus norvegicus
Test: DrugMatrix - Regimen: Daily Repeat
Type: toxicity, organism-based, Sprague-Dawley
Parameters: regimen Daily Repeat, gender Male, age 6-8 weeks
Settings: in vivo, po, 1500 mg/kg, 72 h, tissue Plasma, route oral GAVAGE, dose level High, time 3 day, vehicle .5 % CMC
API: label(entry) gives Y if the entry's LACTATE DEHYDROGENASE is strictly smaller than 100 u/L; on equality or larger values it gives N.

>>> classification("Cc1ccc(S(=O)(=O)NC(=O)NN2CC3CCCC3C2)cc1 (configuration not stated) [GLICLAZIDE]")
"N"
>>> classification("NC(=O)c1cnccn1 [PYRAZINAMIDE]")
"Y"
>>> classification("CO[C@H]1/C=C/O[C@@]2(C)Oc3c(C)c(O)c4c(c3C2=O)C2=NC3(CCN(CC(C)C)CC3)NC2=C(NC(=O)/C(C)=C\\C=C\\[C@H](C)[C@H](O)[C@@H](C)[C@@H](O)[C@@H](C)[C@H](OC(C)=O)[C@@H]1C)C4=O")
"N"

Ask | Field: below-cutoff. Rule: recorded LACTATE DEHYDROGENASE strictly less than 100 u/L. Subject: "CNC(=C[N+](=O)[O-])NCCSCc1ccc(CN(C)C)o1"
Reply | N

Ask | Lab log: compare recorded LACTATE DEHYDROGENASE with 100 u/L; is it strictly lower for Cc1cc(=O)n(-c2ccccc2)n1C [ANTIPYRINE] ?
Reply | N

Ask | Please check: LACTATE DEHYDROGENASE for "O=C(N[C@H](CO)[C@H](O)c1ccc([N+](=O)[O-])cc1)C(Cl)Cl" , strictly under 100 u/L or not?
Reply | Y

====

In this section we review reported CREATINE PHOSPHOKINASE values for a set of compounds.
Species on record: Rattus norvegicus
Experiment: DrugMatrix - Regimen: Daily Repeat
Format: toxicity, organism-based, Sprague-Dawley
Parameters: regimen Daily Repeat, gender Male, age 6-8 weeks
Conditions: in vivo, po, 1500 mg/kg, 120 h, tissue Plasma, route oral GAVAGE, dose level High, time 5 day, vehicle .5 % CMC
Supply the numeric figure in u/L, leaving out any unit text.

Worked cases, answers included:
>>> result_value("Cc1cc(=O)n(-c2ccccc2)n1C [ANTIPYRINE]")
309
>>> result_value("CO[C@H]1/C=C/O[C@@]2(C)Oc3c(C)c(O)c4c(c3C2=O)C2=NC3(CCN(CC(C)C)CC3)NC2=C(NC(=O)/C(C)=C\\C=C\\[C@H](C)[C@H](O)[C@@H](C)[C@@H](O)[C@@H](C)[C@H](OC(C)=O)[C@@H]1C)C4=O")
397.5
>>> result_value("CNC(=C[N+](=O)[O-])NCCSCc1ccc(CN(C)C)o1")
330.33

Ask | Look up CREATINE PHOSPHOKINASE: "O=C(N[C@H](CO)[C@H](O)c1ccc([N+](=O)[O-])cc1)C(Cl)Cl"
Reply | 359.67

Ask | CREATINE PHOSPHOKINASE lookup needed for NC(=O)c1cnccn1 [PYRAZINAMIDE] , thanks.
Reply | 254.33

Ask | For the compound Cc1ccc(S(=O)(=O)NC(=O)NN2CC3CCCC3C2)cc1 (configuration not stated) [GLICLAZIDE] , what CREATINE PHOSPHOKINASE is on record?
Reply | 248.33

Ask | Entry "C[C@]1(Cn2ccnn2)[C@H](C(=O)O)N2C(=O)C[C@H]2S1(=O)=O" has what CREATINE PHOSPHOKINASE?
Reply | 174

====

Below, each of the molecules is paired with its reported PLATELET COUNT value.
Species: Rattus norvegicus
Experiment: DrugMatrix - Regimen: Daily Repeat
Type: toxicity, organism-based, Sprague-Dawley
Set-up: regimen Daily Repeat, gender Male, age 6-8 weeks
Details: in vivo, po, 0 mg/kg, 120 h, tissue Blood, route oral GAVAGE, dose level Control, time 5 day, vehicle .5 % CMC
Give the quantity in x10E3/uL, number only.

Examples from the recorded data:
>>> result_value("CC(=O)CC(c1ccccc1)c1c(O)c2ccccc2oc1=O (configuration not stated)")
1251.67
>>> result_value("CC(C)[C@H]1CC[C@H](C(=O)N[C@H](Cc2ccccc2)C(=O)O)CC1 [NATEGLINIDE]")
1213.83
>>> result_value("CN1CCC(=C2c3ccccc3C=Cc3ccccc32)CC1")
1182.33
>>> result_value("CNC(=C[N+](=O)[O-])NCCSCc1ccc(CN(C)C)o1")
1274
>>> result_value("C[C@]1(Cn2ccnn2)[C@H](C(=O)O)N2C(=O)C[C@H]2S1(=O)=O")
1255.5

Ask | Recorded PLATELET COUNT for C[C@](O)(CS(=O)(=O)c1ccc(F)cc1)C(=O)Nc1ccc(C#N)c(C(F)(F)F)c1 [(R)-BICALUTAMIDE] , please?
Reply | 1196

Ask | What does the data say about its PLATELET COUNT? Entry: "Clc1ccc2c(c1)C(N1CCNCC1)=Nc1ccccc1O2"
Reply | 1229

====

Species on record: Rattus norvegicus
Assay: DrugMatrix - Regimen: Daily Repeat
Format: toxicity, organism-based, Sprague-Dawley
Design: regimen Daily Repeat, gender Male, age 6-8 weeks
Conditions: in vivo, po, 0 mg/kg, 120 h, tissue Plasma, route oral GAVAGE, dose level Control, time 5 day, […]
PROPERTY NAME: POTASSIUM (MEQ/L)
State just the number; it will be interpreted in MEQ/L.

Worked examples follow.
>>> result_value("CC(C)Cc1ccc(C(C)C(=O)O)cc1 (centres undefined)")
5.18
>>> result_value("COc1ccc2[nH]c([S+]([O-])Cc3ncc(C)c(OC)c3C)nc2c1 (centres undefined)")
8.46
>>> result_value("CC(C)(Oc1ccc(C2CCCc3ccccc32)cc1)C(=O)O (centres undefined)")
6.06
>>> result_value("Clc1ccc(Cl)cc1")
6.1

Ask | Could you tell me which POTASSIUM is on file for CCOC(=O)C1=C(C)NC(C)=C(C(=O)OC)C1c1cccc([N+](=O)[O-])c1 (centres undefined) ?
Reply | 5.13

Ask | // lookup POTASSIUM for "CCCCCCCCc1ccc(O)cc1"
Reply | 5.97

====

Organism: Rattus norvegicus
Assay: DrugMatrix - Regimen: Daily Repeat
Format: toxicity, organism-based, Sprague-Dawley
Set-up: regimen Daily Repeat, gender Male, age 6-8 weeks
Conditions: in vivo, po, 1500 mg/kg, 72 h, tissue Blood, route oral GAVAGE, dose level High, time 3 day, vehicle .5 % CMC
PROPERTY NAME: ERYTHROCYTE COUNT (x10E6/uL)
Value expressed in x10E6/uL; do not type the unit.

Reference set, count: 5
>>> result_value("O=C(N[C@H](CO)[C@H](O)c1ccc([N+](=O)[O-])cc1)C(Cl)Cl")
5.41
>>> result_value("NC(=O)c1cnccn1 [PYRAZINAMIDE]")
5.4
>>> result_value("C[C@]1(Cn2ccnn2)[C@H](C(=O)O)N2C(=O)C[C@H]2S1(=O)=O")
5.29
>>> result_value("Cc1ccc(S(=O)(=O)NC(=O)NN2CC3CCCC3C2)cc1 (configuration not stated) [GLICLAZIDE]")
6.45
>>> result_value("Cc1cc(=O)n(-c2ccccc2)n1C [ANTIPYRINE]")
5.53

Ask | Recorded ERYTHROCYTE COUNT for "CO[C@H]1/C=C/O[C@@]2(C)Oc3c(C)c(O)c4c(c3C2=O)C2=NC3(CCN(CC(C)C)CC3)NC2=C(NC(=O)/C(C)=C\C=C\[C@H](C)[C@H](O)[C@@H](C)[C@@H](O)[C@@H](C)[C@H](OC(C)=O)[C@@H]1C)C4=O" , please?
Reply | 6.58

Ask | Record request: ERYTHROCYTE COUNT value, item "CNC(=C[N+](=O)[O-])NCCSCc1ccc(CN(C)C)o1"
Reply | 5.61

====

Organism: Rattus norvegicus
Assay: DrugMatrix - Regimen: Daily Repeat
Assay type: toxicity, organism-based, Sprague-Dawley
Design: regimen Daily Repeat, gender Male, age 6-8 weeks
Details: in vivo, ip, 2 mg/kg, […], tissue Blood, route intraperitoneal, dose level High, time 14 day, vehicle 100 % SALINE
PROPERTY NAME: ABSOLUTE MONOCYTE
State the value with its unit after it.

Ask | Could you share which ABSOLUTE MONOCYTE value was measured for CADMIUM DICHLORIDE ?
Reply | 890 cells/µL
